- Test system: Eleocharis acicularis
- Assay Details: Pre-emergence herbicidal activity against Eleocharis acicularis at 500 g a.i/ha measured after 14 days
- Format: functional, organism-based
Active and inactive are the calls of the source. The calls are words filed in the database; no cut-off is given here.
Allowed answers: yes (1) (active), no (0) (inactive)

Examples from the recorded data:
structure_string=CNC(=O)c1cn(C)nc1OCc1cccc(C(F)(F)F)c1 class_name="no (0)"
structure_string=Cn1cc(C(=O)NCc2cccc(Cl)c2)c(OCc2cccc(C(F)(F)F)c2)n1 class_name="no (0)"
structure_string=Cn1cc(C(=O)N2CCCC2)c(OCc2cccc(C(F)(F)F)c2)n1 class_name="no (0)"
structure_string=Cn1cc(C(=O)Nc2ccc(Cl)cc2Cl)c(OCc2cccc(C(F)(F)F)c2)n1 class_name="yes (1)"
structure_string=Cn1cc(C(=O)NOc2ccccc2Cl)c(OCc2cccc(C(F)(F)F)c2)n1 class_name="yes (1)"
structure_string=Cn1cc(C(=O)Nc2ccc(C#N)cc2)c(OCc2cccc(C(F)(F)F)c2)n1 class_name="no (0)"
structure_string=Cn1cc(C(=O)Nc2ccc(F)cc2F)c(OCc2cccc(C(F)(F)F)c2)n1 class_name="yes (1)"
structure_string=CCONC(=O)c1cn(CC)nc1OCc1cccc(C(F)(F)F)c1 class_name="yes (1)"
structure_string=Cn1cc(C(=O)NOc2ccc(F)cc2F)c(OCc2cccc(C(F)(F)F)c2)n1 class_name="yes (1)"

Attention now shifts to the item below.
Each compound tested received a call. Report the one for CCCn1cc(C(=O)NOCC)c(OCc2cccc(C(F)(F)F)c2)n1 .
no (0)
